- TARGET_OF_ASSAY: α1β3γ2S receptors (Rattus norvegicus, UniProt P62813+P63079)
- Sequence (P63079 26-473): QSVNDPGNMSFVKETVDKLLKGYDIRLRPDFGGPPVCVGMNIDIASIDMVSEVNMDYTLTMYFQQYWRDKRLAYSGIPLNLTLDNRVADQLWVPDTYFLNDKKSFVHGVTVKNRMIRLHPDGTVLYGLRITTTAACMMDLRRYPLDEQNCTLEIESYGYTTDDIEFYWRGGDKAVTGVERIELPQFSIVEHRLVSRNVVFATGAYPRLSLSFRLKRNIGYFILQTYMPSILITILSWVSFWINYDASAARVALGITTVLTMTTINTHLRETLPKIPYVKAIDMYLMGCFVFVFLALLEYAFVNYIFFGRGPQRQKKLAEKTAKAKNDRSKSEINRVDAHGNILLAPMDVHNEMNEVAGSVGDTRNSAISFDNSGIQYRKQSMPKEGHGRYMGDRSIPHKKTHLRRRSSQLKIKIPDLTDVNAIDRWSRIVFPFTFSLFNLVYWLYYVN
- Sequence (P62813 28-455): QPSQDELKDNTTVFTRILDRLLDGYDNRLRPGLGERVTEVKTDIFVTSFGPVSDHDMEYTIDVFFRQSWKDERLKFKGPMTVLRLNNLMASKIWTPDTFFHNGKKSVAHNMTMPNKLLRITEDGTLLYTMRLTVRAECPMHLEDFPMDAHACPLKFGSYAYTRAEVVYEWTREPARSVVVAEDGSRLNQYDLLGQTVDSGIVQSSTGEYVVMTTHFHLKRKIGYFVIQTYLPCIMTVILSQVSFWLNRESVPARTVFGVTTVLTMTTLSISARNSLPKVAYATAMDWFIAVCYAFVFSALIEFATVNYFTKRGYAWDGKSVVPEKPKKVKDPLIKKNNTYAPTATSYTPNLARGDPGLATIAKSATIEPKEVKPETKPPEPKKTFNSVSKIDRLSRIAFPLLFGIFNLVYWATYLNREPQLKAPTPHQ
- Sequence (P18508 39-466 partner): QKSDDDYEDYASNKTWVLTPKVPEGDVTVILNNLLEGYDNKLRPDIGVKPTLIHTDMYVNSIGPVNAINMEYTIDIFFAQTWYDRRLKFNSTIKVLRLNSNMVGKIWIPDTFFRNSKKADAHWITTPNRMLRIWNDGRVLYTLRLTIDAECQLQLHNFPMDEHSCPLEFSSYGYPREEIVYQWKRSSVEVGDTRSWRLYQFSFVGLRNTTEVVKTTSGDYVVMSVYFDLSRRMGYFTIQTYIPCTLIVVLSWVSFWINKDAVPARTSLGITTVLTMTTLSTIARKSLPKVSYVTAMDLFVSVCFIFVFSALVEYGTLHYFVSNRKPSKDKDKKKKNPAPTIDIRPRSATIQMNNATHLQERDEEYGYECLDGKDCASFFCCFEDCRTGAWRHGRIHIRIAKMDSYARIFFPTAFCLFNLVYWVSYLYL
- MEASUREMENT_DESCRIPTION: IGABA enhancement
- Format: cell-based
- CONDITION_LABEL: read-out: maximal IGABA enhancement (Emax)
Decide using Emax: a value greater than or equal to 700% is T, a smaller one is F.

# COMPOUND, TARGET_OF_ASSAY, CLASS_ASSIGNMENT
measured = [
    ("CC1=C2[C@H](/C=C(\\C)c3nnn[nH]3)CC[C@@H](C)[C@H]2CC1 [VA-TET]", "α1β3γ2S receptors (Rattus norvegicus, UniProt P62813+P63079)", "F"),
    ("CCNC(=O)/C(C)=C/[C@@H]1CC[C@@H](C)[C@H]2CCC(C)=C12 [VA-EA]", "α1β3γ2S receptors (Rattus norvegicus, UniProt P62813+P63079)", "F"),
]

Reported Emax reaches at least 700% for CCN(CC)C(=O)/C(C)=C/[C@@H]1CC[C@@H](C)[C@H]2CCC(C)=C12 [VA-DEA] ?
F

Another: CC1=C2[C@H](/C=C(\C)C(=O)N(C)C)CC[C@@H](C)[C@H]2CC1 [VA-DMA]
F

Another: CC1=C2[C@H](/C=C(\C)C(N)=O)CC[C@@H](C)[C@H]2CC1 [VA-A]
T

Another: CC1=C2[C@H](/C=C(\C)C#N)CC[C@@H](C)[C@H]2CC1 [VA-CN]
F

---

Give measured Emax for each item. Keep answers brief.
- TARGET_OF_ASSAY: α1β2γ2S receptors (Rattus norvegicus, UniProt P62813+P63138)
- Sequence (P63138 25-474 limits assumed, one chain of several): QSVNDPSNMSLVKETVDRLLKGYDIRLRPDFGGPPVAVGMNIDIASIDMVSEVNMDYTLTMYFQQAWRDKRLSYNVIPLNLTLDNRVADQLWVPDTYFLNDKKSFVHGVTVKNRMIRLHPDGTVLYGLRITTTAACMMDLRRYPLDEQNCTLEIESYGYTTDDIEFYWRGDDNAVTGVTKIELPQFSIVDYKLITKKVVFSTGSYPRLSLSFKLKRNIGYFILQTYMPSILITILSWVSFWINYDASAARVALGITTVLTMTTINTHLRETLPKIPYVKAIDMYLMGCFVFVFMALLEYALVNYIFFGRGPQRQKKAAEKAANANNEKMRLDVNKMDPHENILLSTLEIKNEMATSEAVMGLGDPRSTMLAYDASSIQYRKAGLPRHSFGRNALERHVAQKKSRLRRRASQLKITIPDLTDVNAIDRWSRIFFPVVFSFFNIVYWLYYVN
- MEASUREMENT_DESCRIPTION: IGABA enhancement
- Type: cell-based
- CONDITION_LABEL: read-out: maximal IGABA enhancement (Emax)
One number for each entry, in %.

# COMPOUND, Emax, %
measured = [
    ("CCN(CC)C(=O)/C(C)=C/[C@@H]1CC[C@@H](C)[C@H]2CCC(C)=C12", 573),
    ("CCNC(=O)/C(C)=C/[C@@H]1CC[C@@H](C)[C@H]2CCC(C)=C12", 554),
    ("CC1=C2[C@H](/C=C(\\C)C(=O)O)CC[C@@H](C)[C@H]2CC1 [VA, Valerenic acid, reference compound]", 721),
    ("CNC(=O)/C(C)=C/[C@@H]1CC[C@@H](C)[C@H]2CCC(C)=C12", 917),
    ("CC1=C2[C@H](/C=C(\\C)C#N)CC[C@@H](C)[C@H]2CC1", 765),
]

Let's switch to this compound now.
Data request, read-out Emax, for "CC1=C2[C@H](/C=C(\C)C(=O)N(C)C)CC[C@@H](C)[C@H]2CC1"
594

---

- TARGET_OF_ASSAY: α1β1γ2S receptors (Rattus norvegicus, UniProt P15431+P62813)
- Sequence (P15431 26-474): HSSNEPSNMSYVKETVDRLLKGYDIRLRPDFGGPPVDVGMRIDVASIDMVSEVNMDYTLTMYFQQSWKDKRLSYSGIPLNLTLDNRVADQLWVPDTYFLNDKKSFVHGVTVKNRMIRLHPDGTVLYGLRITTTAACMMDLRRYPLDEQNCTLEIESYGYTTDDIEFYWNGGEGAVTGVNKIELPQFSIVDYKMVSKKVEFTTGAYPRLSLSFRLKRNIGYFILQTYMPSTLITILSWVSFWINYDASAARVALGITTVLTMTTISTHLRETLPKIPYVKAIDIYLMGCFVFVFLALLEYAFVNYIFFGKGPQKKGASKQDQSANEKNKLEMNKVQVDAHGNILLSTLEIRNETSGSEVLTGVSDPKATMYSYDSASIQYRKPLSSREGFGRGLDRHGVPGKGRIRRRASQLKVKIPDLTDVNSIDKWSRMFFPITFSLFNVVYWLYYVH
- Sequence (P62813 28-455): as the sequence (P62813 28-455) above
- Sequence (P18508 39-466 partner): as the sequence (P18508 39-466 partner) above
- MEASUREMENT_DESCRIPTION: IGABA enhancement
Give measured pEC50 for each item. Keep answers brief.
Numbers only, as −log10 of the molar value.

The examples below pair each entry with its known result.
# COMPOUND, pEC50
measured = [
    ("CNC(=O)/C(C)=C/[C@@H]1CC[C@@H](C)[C@H]2CCC(C)=C12", 4.24),
    ("CCNC(=O)/C(C)=C/[C@@H]1CC[C@@H](C)[C@H]2CCC(C)=C12", 4.29),
    ("CC1=C2[C@H](/C=C(\\C)C#N)CC[C@@H](C)[C@H]2CC1", 4.14),
]

Could you tell me pEC50 for each of these compounds? They are listed below.
1. CC1=C2[C@H](/C=C(\C)C(=O)N(C)C)CC[C@@H](C)[C@H]2CC1
2. CC1=C2[C@H](/C=C(\C)C(=O)O)CC[C@@H](C)[C@H]2CC1 [VA, Valerenic acid, reference compound]
3. CC1=C2[C@H](/C=C(\C)C(N)=O)CC[C@@H](C)[C@H]2CC1
4. CC1=C2[C@H](/C=C(\C)c3nnn[nH]3)CC[C@@H](C)[C@H]2CC1

[4.28, 4.13, 4.18, 4.63]

Data request, read-out pEC50, for "CCN(CC)C(=O)/C(C)=C/[C@@H]1CC[C@@H](C)[C@H]2CCC(C)=C12"
4.01

---

- TARGET_OF_ASSAY: α1β1γ2S receptors (Rattus norvegicus, UniProt P15431+P62813)
- MEASUREMENT_DESCRIPTION: IGABA enhancement
- Format: cell-based
- CONDITION_LABEL: α1β1γ2S, GABA EC3-7, Xenopus oocytes
Give measured Hill-coefficient (nH) for each item. Keep answers brief.

The examples below pair each entry with its known result.
# MOLECULE, TARGET_OF_ASSAY, Hill-coefficient (nH)
data = [
    ("CC1=C2[C@H](/C=C(\\C)C(=O)O)CC[C@@H](C)[C@H]2CC1 [VA, Valerenic acid, reference compound]", "α1β1γ2S receptors (Rattus norvegicus, UniProt P15431+P62813)", "1.6 ± 0.5"),
    ("CC1=C2[C@H](/C=C(\\C)C#N)CC[C@@H](C)[C@H]2CC1", "α1β1γ2S receptors (Rattus norvegicus, UniProt P15431+P62813)", "1.7 ± 0.7"),
]

Return Hill-coefficient (nH) measured with α1β1γ2S receptors (Rattus norvegicus, UniProt P15431+P62813) given this molecule: "CCNC(=O)/C(C)=C/[C@@H]1CC[C@@H](C)[C@H]2CCC(C)=C12"
1.6 ± 0.3

---

- TARGET_OF_ASSAY: α1β2γ2S receptors (Rattus norvegicus, UniProt P62813+P63138)
- MEASUREMENT_DESCRIPTION: IGABA enhancement
Give measured EC50 for each item. Keep answers brief.
Give bare numbers, in µM.

# MOLECULE, QUANTITATIVE_RESULT
records = [
    ("CC1=C2[C@H](/C=C(\\C)C(N)=O)CC[C@@H](C)[C@H]2CC1", 14),
]

Could you tell me EC50 for each of these molecules? They are listed below.
1. CNC(=O)/C(C)=C/[C@@H]1CC[C@@H](C)[C@H]2CCC(C)=C12
2. CCNC(=O)/C(C)=C/[C@@H]1CC[C@@H](C)[C@H]2CCC(C)=C12
3. CC1=C2[C@H](/C=C(\C)C(=O)N(C)C)CC[C@@H](C)[C@H]2CC1
4. CCN(CC)C(=O)/C(C)=C/[C@@H]1CC[C@@H](C)[C@H]2CCC(C)=C12
5. CC1=C2[C@H](/C=C(\C)C#N)CC[C@@H](C)[C@H]2CC1
6. CC1=C2[C@H](/C=C(\C)C(=O)O)CC[C@@H](C)[C@H]2CC1 [VA, Valerenic acid, reference compound]
7. CC1=C2[C@H](/C=C(\C)c3nnn[nH]3)CC[C@@H](C)[C@H]2CC1

1. 9.1
2. 11
3. 63.9
4. 54.4
5. 56.5
6. 23.1
7. 34.1

---

- TARGET_OF_ASSAY: α1β2γ2S receptors (Rattus norvegicus, UniProt P62813+P63138)
- MEASUREMENT_DESCRIPTION: IGABA enhancement
- Assay type: cell-based
- CONDITION_LABEL: α1β2γ2S, GABA EC3-7, Xenopus oocytes
OBSERVATION_TYPE: Hill-coefficient (nH)
Give bare numbers.

The examples below pair each entry with its known result.
# COMPOUND, TARGET_OF_ASSAY, Hill-coefficient (nH)
records = [
    ("CC1=C2[C@H](/C=C(\\C)c3nnn[nH]3)CC[C@@H](C)[C@H]2CC1", "α1β2γ2S receptors (Rattus norvegicus, UniProt P62813+P63138)", 1.0),
    ("CC1=C2[C@H](/C=C(\\C)C(N)=O)CC[C@@H](C)[C@H]2CC1", "α1β2γ2S receptors (Rattus norvegicus, UniProt P62813+P63138)", 1.4),
    ("CNC(=O)/C(C)=C/[C@@H]1CC[C@@H](C)[C@H]2CCC(C)=C12", "α1β2γ2S receptors (Rattus norvegicus, UniProt P62813+P63138)", 1.5),
    ("CC1=C2[C@H](/C=C(\\C)C(=O)O)CC[C@@H](C)[C@H]2CC1 [VA, Valerenic acid, reference compound]", "α1β2γ2S receptors (Rattus norvegicus, UniProt P62813+P63138)", 1.4),
    ("CCNC(=O)/C(C)=C/[C@@H]1CC[C@@H](C)[C@H]2CCC(C)=C12", "α1β2γ2S receptors (Rattus norvegicus, UniProt P62813+P63138)", 1.6),
    ("CC1=C2[C@H](/C=C(\\C)C#N)CC[C@@H](C)[C@H]2CC1", "α1β2γ2S receptors (Rattus norvegicus, UniProt P62813+P63138)", 2.5),
]

Could you tell me Hill-coefficient (nH) for each of these compounds? They are listed below.
1. CC1=C2[C@H](/C=C(\C)C(=O)N(C)C)CC[C@@H](C)[C@H]2CC1
2. CCN(CC)C(=O)/C(C)=C/[C@@H]1CC[C@@H](C)[C@H]2CCC(C)=C12

1. 1.3
2. 1.6

These entries and their values trace back to paper PMC4885513.
